measurement-target: human recombinant collagenase (Homo sapiens, UniProt P03956)
Sequence (P03956 100-469): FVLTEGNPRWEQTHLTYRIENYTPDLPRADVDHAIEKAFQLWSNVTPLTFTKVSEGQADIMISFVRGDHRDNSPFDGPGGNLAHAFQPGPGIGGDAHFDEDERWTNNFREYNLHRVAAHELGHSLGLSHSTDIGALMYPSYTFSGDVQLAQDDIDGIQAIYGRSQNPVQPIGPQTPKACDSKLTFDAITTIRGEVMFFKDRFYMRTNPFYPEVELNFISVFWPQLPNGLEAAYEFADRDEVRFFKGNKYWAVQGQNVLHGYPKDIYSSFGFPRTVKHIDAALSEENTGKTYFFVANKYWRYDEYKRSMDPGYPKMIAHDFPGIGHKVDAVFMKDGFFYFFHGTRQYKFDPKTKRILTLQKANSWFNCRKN
experiment-description: Collagenase inhibition assay
study-conditions: 37° C., 18 h, acetylated 3H type 1 bovine collagen
property: IC50

Data request: # IC50 lookup, item "O=C(NO)[C@H]1CCCCN1S(=O)(=O)Cc1ccc2ccccc2c1"
Data returned: > 10 µM
